Tgt: T1, FcγRIIB (UniProt P31994 43-217, limits assumed)
T1 construct: also called CD32B
T1 sequence (looked up): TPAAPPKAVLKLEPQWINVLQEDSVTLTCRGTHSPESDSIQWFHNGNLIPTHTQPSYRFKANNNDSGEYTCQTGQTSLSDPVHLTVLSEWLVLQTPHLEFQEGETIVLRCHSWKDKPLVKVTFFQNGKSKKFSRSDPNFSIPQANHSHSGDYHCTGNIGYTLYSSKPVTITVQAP
Procedure Text: ELISA
Entries and their measured ELISA binding increase vs wt follow.
Give just the numeric value; x need not be written.

[
  {
    "Binder": "ch4-4-20 T215P, K274N, A287G, K334N, L365V, P396L (antibody) PEPKSCDKTHTCPPCPAPELLGGPSVFLFPPKPKDTLMISRTPEVTCVVVDVSHEDPEVNFNWYVDGVEVHNGKTKPREEQYNSTYRVVSVLTVLHQDWLNGKEYKCKVSNKALPAPIENTISKAKGQPREPQVYTLPPSRDELTKNQVSVTCLVKGFYPSDIAVEWESNGQPENNYKTTPLVLDSDGSFFLYSKLTVDKSRWQQGNVFSCSVMHEALHNHYTQKSLSLSPGK",
    "ELISA binding increase vs wt (x)": 4
  },
  {
    "Binder": "ch4-4-20 K317N, F423-deleted (antibody) EPKSCDKTHTCPPCPAPELLGGPSVFLFPPKPKDTLMISRTPEVTCVVVDVSHEDPEVKFNWYVDGVEVHNAKTKPREEQYNSTYRVVSVLTVLHQDWLNGNEYKCKVSNKALPAPIEKTISKAKGQPREPQVYTLPPSREEMTKNQVSLTCLVKGFYPSDIAVEWESNGQPENNYKTTPPVLDSDGSFFLYSKLTVDKSRWQQGNVSCSVMHEALHNHYTQKSLSLSPGK",
    "ELISA binding increase vs wt (x)": 7
  },
  {
    "Binder": "ch4-4-20 D221E, D270E, V308A, Q311H, P396L, G402D (antibody) EPKSCEKTHTCPPCPAPELLGGPSVFLFPPKPKDTLMISRTPEVTCVVVDVSHEEPEVKFNWYVDGVEVHNAKTKPREEQYNSTYRVVSVLTALHHDWLNGKEYKCKVSNKALPAPIEKTISKAKGQPREPQVYTLPPSREEMTKNQVSLTCLVKGFYPSDIAVEWESNGQPENNYKTTPLVLDSDDSFFLYSKLTVDKSRWQQGNVFSCSVMHEALHNHYTQKSLSLSPGK",
    "ELISA binding increase vs wt (x)": 0.1
  }
]

Then there is this binder:
response.value for ch4-4-20 V348M, K334N, F275I, Y202M, K147T (antibody) ASTKGPSVFPLAPSSKSTSGGTAALGCLVTDYFPEPVTVSWNSGALTSGVHTFPAVLQSSGLYSLSSVVTVPSSSLGTQTYICNMNHKPSNTKVDKKVEPKSCDKTHTCPPCPAPELLGGPSVFLFPPKPKDTLMISRTPEVTCVVVDVSHEDPEVKINWYVDGVEVHNAKTKPREEQYNSTYRVVSVLTVLHQDWLNGKEYKCKVSNKALPAPIENTISKAKGQPREPQMYTLPPSRDELTKNQVSLTCLVKGFYPSDIAVEWESNGQPENNYKTTPPVLDSDGSFFLYSKLTVDKSRWQQGNVFSCSVMHEALHNHYTQKSLSLSPGK (field: ELISA binding increase vs wt) = 0.75

Reference source: patent US20080138349A1
